Test system: MSRA
reported.property: MIC50 (µg/mL)

smiles=CC[C@H]1OC(=O)[C@H](C)[C@@H](O[C@H]2C[C@@](C)(OC)[C@@H](O)[C@H](C)O2)[C@H](C)[C@@H](O[C@@H]2O[C@H](C)C[C@H](N(C)C)[C@H]2O)[C@](C)(O)C[C@@H](C)CN(C)[C@H](C)[C@@H](O)[C@]1(C)O reported_property=MIC50 readout_qualifier=> experimental_result=32
smiles=CC[C@H]1OC(=O)[C@@](C)(F)C(=O)[C@H](C)[C@@H](O[C@@H]2O[C@H](C)C[C@H](N(C)C)[C@H]2O)[C@](C)(OC)C[C@@H](C)C(=O)[C@H](C)[C@H]2N(CCCCn3cc(-c4cccc(N)c4)nn3)C(=O)O[C@]12C reported_property=MIC50 readout_qualifier== experimental_result=0.03
smiles=COc1c(N2C[C@@H]3CCCN[C@@H]3C2)c(F)cc2c(=O)c(C(=O)O)cn(C3CC3)c12 reported_property=MIC50 readout_qualifier== experimental_result=2
smiles=NC[C@H]1O[C@H](O[C@H]2[C@H](O)[C@@H](O[C@H]3O[C@H](CO)[C@@H](O)[C@H](N)[C@H]3O)[C@H](N)C[C@@H]2N)[C@H](N)C[C@@H]1O reported_property=MIC50 readout_qualifier== experimental_result=1

###

Lab note: MIC90 readings collected with S. pneumoniae for the following molecules.
reported.property: MIC90 (µg/mL)

molecule="COc1c(N2C[C@@H]3CCCN[C@@H]3C2)c(F)cc2c(=O)c(C(=O)O)cn(C3CC3)c12 [Moxifloxacin]" experimental_result=0.25
molecule="NC[C@H]1O[C@H](O[C@H]2[C@H](O)[C@@H](O[C@H]3O[C@H](CO)[C@@H](O)[C@H](N)[C@H]3O)[C@H](N)C[C@@H]2N)[C@H](N)C[C@@H]1O [Tobramycin]" experimental_result=16
molecule="CC[C@H]1OC(=O)[C@H](C)[C@@H](O[C@H]2C[C@@](C)(OC)[C@@H](O)[C@H](C)O2)[C@H](C)[C@@H](O[C@@H]2O[C@H](C)C[C@H](N(C)C)[C@H]2O)[C@](C)(O)C[C@@H](C)CN(C)[C@H](C)[C@@H](O)[C@]1(C)O [Azithromycin, azithromycin]" experimental_result=8
molecule="CC[C@H]1OC(=O)[C@@](C)(F)C(=O)[C@H](C)[C@@H](O[C@@H]2O[C@H](C)C[C@H](N(C)C)[C@H]2O)[C@](C)(OC)C[C@@H](C)C(=O)[C@H](C)[C@H]2N(CCCCn3cc(-c4cccc(N)c4)nn3)C(=O)O[C@]12C [CEM-101, solithromycin]" experimental_result=0.12

###

Lab note: MIC90 readings collected with H. influenzae for the following molecules.
reported.property: MIC90

smiles=NC[C@H]1O[C@H](O[C@H]2[C@H](O)[C@@H](O[C@H]3O[C@H](CO)[C@@H](O)[C@H](N)[C@H]3O)[C@H](N)C[C@@H]2N)[C@H](N)C[C@@H]1O experimental_result="4 µg/mL"
smiles=COc1c(N2C[C@@H]3CCCN[C@@H]3C2)c(F)cc2c(=O)c(C(=O)O)cn(C3CC3)c12 experimental_result="0.06 µg/mL"
smiles=CC[C@H]1OC(=O)[C@H](C)[C@@H](O[C@H]2C[C@@](C)(OC)[C@@H](O)[C@H](C)O2)[C@H](C)[C@@H](O[C@@H]2O[C@H](C)C[C@H](N(C)C)[C@H]2O)[C@](C)(O)C[C@@H](C)CN(C)[C@H](C)[C@@H](O)[C@]1(C)O experimental_result="2 µg/mL"
smiles=CC[C@H]1OC(=O)[C@@](C)(F)C(=O)[C@H](C)[C@@H](O[C@@H]2O[C@H](C)C[C@H](N(C)C)[C@H]2O)[C@](C)(OC)C[C@@H](C)C(=O)[C@H](C)[C@H]2N(CCCCn3cc(-c4cccc(N)c4)nn3)C(=O)O[C@]12C experimental_result="2 µg/mL"
